Numbers sourced from PubChem BioAssay (NCATS).

# tested-system: Cytochrome P450 1A2 (Homo sapiens) (UniProt P05177)
# Sequence (P05177 whole entry, looked up): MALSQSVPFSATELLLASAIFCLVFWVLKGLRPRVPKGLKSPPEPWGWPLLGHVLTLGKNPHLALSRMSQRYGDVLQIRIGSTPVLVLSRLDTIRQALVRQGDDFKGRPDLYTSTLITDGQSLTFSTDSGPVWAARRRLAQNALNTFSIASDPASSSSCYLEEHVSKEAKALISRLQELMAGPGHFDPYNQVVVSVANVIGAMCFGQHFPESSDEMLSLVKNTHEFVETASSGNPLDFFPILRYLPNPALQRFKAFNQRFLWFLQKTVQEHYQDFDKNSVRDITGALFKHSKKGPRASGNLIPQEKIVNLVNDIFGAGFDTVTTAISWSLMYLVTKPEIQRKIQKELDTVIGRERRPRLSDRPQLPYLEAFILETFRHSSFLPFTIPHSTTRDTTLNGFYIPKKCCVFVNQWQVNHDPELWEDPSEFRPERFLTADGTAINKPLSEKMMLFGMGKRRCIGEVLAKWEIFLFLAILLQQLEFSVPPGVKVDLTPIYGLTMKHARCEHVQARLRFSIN
# assay-name: p450-cyp1a2 (AID 410)
# condition-notes: recombinant CYP1A2, luciferin-ME demethylation, luminescence; series mostly up to 57 µM
Records with an inconclusive call do not appear. The source made the active and inactive calls. The call rests on the fitted dose curve.
Possible outcomes: active, inactive

compound | class-assignment
COC(=O)[C@@]1(Cc2ccc(F)cc2)[C@H]2c3cc(C(=O)N4CCCC4)n(CCO)c3C[C@H]2CN1C(=O)c1ccccc1 | active
C=C(CO)[C@H]1Cc2c(ccc3c2O[C@H]2COc4cc(OC)c(OC)cc4[C@@H]2C3=O)O1 | inactive
Clc1ccc(CO[C@@H](Cn2ccnc2)c2ccc(Cl)cc2Cl)cc1 | active
OC[C@@H]1O[C@@H](n2cnc3c(NCCc4ccccc4)ncnc32)[C@@H](O)[C@H]1O | inactive
C[C@@H](C(=O)NCc1nc2ccccc2[nH]1)[C@@H]1C[C@@]1(C)[C@@H](NC(=O)OCc1ccccc1)c1ccccc1 | active
COC(=O)[C@@]1(Cc2ccc(F)cc2)[C@H]2c3cc(C(=O)N4CCCC4)n(CCc4c[nH]c5ccccc45)c3C[C@H]2CN1C(=O)c1ccccc1 | inactive
CCCCCCCCCCCCCCCCOC[C@@H](COCC(F)(F)F)OP(=O)(O)OCO | inactive
CN(CCc1ccc(Cl)c(Cl)c1)CCN1CCCCCC1 | active
CC(C)C[C@@H](CC(=O)N[C@@H](CCC(=O)O)CC(=O)O)NC(=O)[C@@H]1CCCC[C@H]1NC(=O)C[C@@H](NC(=O)C[C@H](CO)NC(=O)[C@@H]1CCCC[C@H]1N)C(C)C | inactive
c1ccc2c(c1)Cc1cc3cc4c(cc3nc1-2)OCO4 | active
CCC/C=C(\CCC)C(NC(=O)C(C)(C)C)c1ccc(C(=O)OC)cc1 (stereo unspecified) | inactive
CC(C)[C@@H](CC(=O)N[C@@H]1CCNC[C@H]1C(=O)N[C@H](CC(=O)N[C@@H](CCC(=O)O)CC(=O)O)Cc1ccccc1)NC(=O)C[C@H](Cc1c[nH]c2ccccc12)NC(=O)[C@@H]1CNCC[C@H]1N | inactive
COC(=O)[C@@]1(Cc2ccc(OC)cc2)[C@@H]2C(=CC(=O)[C@H]2CC(=O)C(=O)N2CCCC2)CN1C(=O)c1ccccc1 | inactive
CCCC/C=C/C(NC(=O)Oc1cccc(C(F)(F)F)c1)c1ccccc1 (stereo unspecified) | active
COC(=O)[C@@]1(Cc2ccc(F)cc2)[C@H]2c3cc(C(=O)N(C)C)n(CCCNc4ccc(C(F)(F)F)cc4Cl)c3C[C@H]2CN1C(=O)c1ccccc1 | inactive
CCC/C=C(\CCC)C(NC(=O)c1cccs1)c1ccc(C(=O)OC)cc1 (stereo unspecified) | active

* * *

# Test system: TAB109
# assay-name: qHTS profiling for inhibitors of Plasmodium falciparum proliferation (AID 504749); further: nearly all actives have a fitted effect of over 60% in size; further: potency means the concentration at half of the fitted maximal effect
# condition-notes: P. falciparum in erythrocytes, SYBR Green DNA, 72 h; series mostly up to 28.7 µM
Results filed as inconclusive are left out. Calls of active or inactive are those of the source. Calls follow the shape of the dose curve; as a rule, active = well fitted inhibition curve with a large enough effect; inconclusive = small, poorly fitted or top-dose-only effect; inactive = flat fitted curve, though single readings scatter.

compound | Potency
CC(=O)NC1[C@H]([C@H](O)[C@H](O)CO)OC(C(=O)O)=C[C@H]1N=C(N)N (some centres not stated) | inactive
NC(=O)NC(CCC(=O)O)C(=O)O (configuration not stated) | inactive
CCCCCCCCCCCC(=O)OCC(O)C1OCC(O)C1O (configuration not stated) | inactive
COc1cccc(OC)c1C(=O)NC1C(=O)N2C1SC(C)(C)C2C(=O)O (configuration not stated) | inactive
CC[C@H](C)[C@H]1O[C@]2(CC[C@@H]1C)C[C@@H]1C[C@@H](C/C=C(\C)[C@H](O[C@@H]3C[C@H](OC)[C@H](O[C@@H]4C[C@H](OC)[C@@H](O)[C@H](C)O4)[C@H](C)O3)[C@@H](C)/C=C/C=C3\CO[C@@H]4[C@H](O)C(C)=C[C@@H](C(=O)O1)[C@]34O)O2 | 1260 nM (active)
CCN(CC)C(=O)Nc1ccc(OC[C@H](O)CNC(C)(C)C)c(C(C)=O)c1 | inactive
Nc1nc2[nH]cc(CCc3ccc(C(=O)NC(CCC(=O)O)C(=O)O)cc3)c2c(=O)[nH]1 (configuration not stated) | 11200 nM (active)
C[C@]12CC[C@@H]3c4ccc(O)cc4CC[C@H]3[C@@H]1C[C@H](O)C2O (some centres not stated) | inactive
CO/N=C(/C(=O)N[C@@H]1C(=O)N2C(C(=O)O)=C(C[n+]3ccc(N)n3CCO)CS[C@H]12)c1csc(N)n1 | inactive
CC1(C)C2CC[C@]1(C)[C@@H](O)C2 | inactive
C=C[C@H]1CN2CCC1C[C@H]2[C@H](O)c1ccnc2ccc(OC)cc12 (some centres not stated) | 501 nM (active)
CC(=O)OC1C([N+]2(C)CCCCC2)C[C@H]2C3CC[C@H]4C[C@H](OC(C)=O)C([N+]5(C)CCCCC5)CC4(C)C3CCC12C (some centres not stated) | inactive
C[S+](C)CC[C@H](N)C(=O)O | inactive
CC(CCC(=O)O)C1CCC2C3C(=O)C[C@@H]4CC(=O)CC[C@@]4(C)C3CC(=O)[C@]12C (some centres not stated) | inactive
Cc1c(C)c2c(c(C)c1O)CCC(C)(CCCC(C)CCCC(C)CCCC(C)C)O2 (configuration not stated) | inactive
O=c1[nH]c(=O)n(C2C[C@H](O)[C@@H](CO)O2)cc1C(F)(F)F (some centres not stated) | inactive
CC[C@@]1(O)C[C@H](O[C@H]2C[C@@H](N(C)C)[C@@H](O[C@H]3C[C@@H](O)[C@@H](O[C@H]4CCC(=O)[C@@H](C)O4)[C@@H](C)O3)[C@@H](C)O2)c2c(cc3c(c2O)C(=O)c2c(O)cccc2C3=O)[C@H]1C(=O)OC | 224 nM (active)

* * *

# assay-name: Cell Viability - Jurkat (AID 426);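 further: potency means the concentration at half of the fitted maximal effect; cells exposed to compound for 40 hours at 37 °C before ATP read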
# condition-notes: qHTS
Inconclusive results are not listed. The source made the active and inactive calls.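 How the source made its calls: active means dose-dependent loss of cell ATP signal giving a full or clear fitted curve, ranked by lower potency value; inconclusive means weak partial curve or response only at the top dose; inactive means no loss of viability signal.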
Possible outcomes: active, inactive

query-smiles | class-assignment
c1ccc2c(c1)ccc1cc3c(ccc4ccccc43)cc12 | inactive
CCCCCCCC[N+](CCCCCCCC)(CCCCCCCC)CCCCCCCC | active
C=C(C)c1ccccc1 | inactive
C=CC(=O)OCCOCCOC(=O)C=C | active
c1ccc2c(c1)-c1cccc3c1c-2cc1ccccc13 | inactive
Cc1cccc(O)c1C | inactive

* * *

# Tested on: CP191
# assay-name: qHTS profiling for inhibitors of Plasmodium falciparum proliferation (AID 504749); further: nearly all actives have a fitted effect of over 60% in size
# condition-notes: P. falciparum in erythrocytes, SYBR Green DNA, 72 h; series mostly up to 28.7 µM
Records with an inconclusive call do not appear. Active and inactive are the calls of the source. The call rests on the fitted dose curve; in most records, active means well fitted inhibition curve with a large enough effect; inconclusive means small, poorly fitted or top-dose-only effect; inactive means flat fitted curve, though single readings scatter.
Possible outcomes: YES = active, NO = inactive

molecule | tested-system | class-assignment
O=C(O)CC(O)CC(O)/C=C/c1c(C2CC2)nc2ccccc2c1-c1ccc(F)cc1 (centres undefined) | CP191 | NO
CO[C@H]1/C=C/O[C@@]2(C)Oc3c(C)c(O)c4c(O)c(c5c(c4c3C2=O)NC2(CCN(CC(C)C)CC2)N=5)=NC(=O)/C(C)=C\C=C\[C@H](C)[C@H](O)[C@@H](C)[C@@H](O)[C@@H](C)[C@H](OC(C)=O)[C@@H]1C | CP191 | YES
O=C(O)[C@H]1C[C@@H](CP(=O)(O)O)CCN1 | CP191 | NO
O=C(O)C[CH2][Ge](=[O])[O][Ge](=[O])[CH2]CC(=O)O | CP191 | NO

* * *

# assay-name: NFAT Signaling Pathway (AID 444);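 further: carbachol stimulus at about its EC50 of 1 µM final; on the % scale 0 is the no-effect control and ±100 the full control effect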
# condition-notes: Jurkat NFAT-bla M1, carbachol, beta-lactamase ratio, 5 h; at 17.2 µM (top of the series) unless noted
Results filed as inconclusive are left out. Active and inactive are the calls of the source. Calls follow the shape of the dose curve; as a rule, active = well fitted curve in either direction with a large enough effect (not every such curve was filed as active); inconclusive = small, poorly fitted or top-dose-only effect, or another doubt; inactive = flat fitted curve, though single readings scatter.
Catalogue of activity change, negative = inhibition readings, one per entry.

compound | activity change, negative = inhibition
CCCCCSc1nc(C)c(CC(=O)O)c(=O)[nH]1 | 15.5% (inactive)
Cc1cc(C)nc(NC2=NCC(=O)N2c2cccc(Cl)c2)n1 | -0.714% (inactive)
CCCC1C(c2ccc(OC)cc2)C(C#N)(C#N)C2(C#N)CC1(N)NC2=O (stereo unspecified) | -5.15% (inactive)
Cc1ccc(-c2nn(CCC(=O)NCC3CCCO3)c(=O)c3ccccc23)cc1 (stereo unspecified) | -7.06% (inactive)
COC(=O)COn1c(SCC(=O)OC)nc2ccccc2c1=O | 3.27% (inactive)
OC[C@@H]1O[C@@H](n2cnc3c(Nc4ccccc4)ncnc32)[C@@H](O)[C@H]1O | 0.0847% [at 38 µM] (inactive)
COc1ccc(N2C(=O)CC(N(Cc3ccc(S(N)(=O)=O)cc3)C(C)=O)C2=O)cc1 (stereo unspecified) | -2.46% (inactive)
COc1ccc2[nH]cc(C(=O)CN(C)CCc3ccc(OC)c(OC)c3)c2c1 | 11.6% (inactive)
CCOc1ccc(CC2CC(=O)NC2=O)cc1 (stereo unspecified) | -5.51% (inactive)
Cc1ccc(C#N)c(SCc2cc3c(cc2Cl)OCO3)n1 | -1.4% (inactive)
COc1ccc(N2CC(=O)N(c3ccc(OC)c(OC)c3)CC2=O)cc1OC | 5.84% (inactive)
